- tgt: human TREM2 (Homo sapiens, UniProt Q9NZC2)
- Construct: expressed in transfected cells; host or cells: HEK293T (HEK293T-hTREM2 cells)
- Sequence (Q9NZC2 19-230): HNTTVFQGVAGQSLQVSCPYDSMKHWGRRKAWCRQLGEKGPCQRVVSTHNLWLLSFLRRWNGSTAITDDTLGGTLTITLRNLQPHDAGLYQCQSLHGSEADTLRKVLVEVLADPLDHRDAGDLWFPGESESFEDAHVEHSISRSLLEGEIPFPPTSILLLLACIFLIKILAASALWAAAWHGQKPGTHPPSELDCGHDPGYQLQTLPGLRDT
- Sequence (O43914 22-113 partner): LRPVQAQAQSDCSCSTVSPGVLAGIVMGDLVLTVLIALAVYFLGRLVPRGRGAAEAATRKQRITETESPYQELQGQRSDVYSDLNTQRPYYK
- test protocol: TREM2 agonist potency by cellular phosphorylation of Spleen Tyrosine Kinase (Syk), AlphaLisa, HEK293T-hTREM2 cells
- Format: cell-based
- condition parameters: hTREM2 EC50 Data (HEK293 Cells); Syk phosphorylation, AlphaLisa; read-out: hTREM2 EC50

{"columns": ["compound", "tgt", "EC50"],
 "data": [
  ["[2H]C([2H])([2H])c1nc2nc(C3CCOC(c4ccc(=O)n(C([2H])([2H])[2H])c4)C3)nc(C34CC(C(F)(F)F)(C3)C4)c2nc1C([2H])([2H])[2H] (stereo not drawn) [Example 353]", "human TREM2 (Homo sapiens, UniProt Q9NZC2)", "< 100 nM"],
  ["Cc1nc2nc([C@H]3CCO[C@@H](c4ccc(=O)n(C)c4)C3)nc(C34CC(C(C)(F)F)(C3)C4)c2nc1C [Example 38]", "human TREM2 (Homo sapiens, UniProt Q9NZC2)", "< 100 nM"],
  ["Cc1nc2nc([C@H]3CCO[C@@H](c4ccc(=O)n(C)c4)C3)nc(C34CC(CC(F)F)(C3)C4)c2nc1C [Example 46]", "human TREM2 (Homo sapiens, UniProt Q9NZC2)", "< 100 nM"]
]}

* * *

- tgt: human TREM2 (Homo sapiens, UniProt Q9NZC2)
- Construct: expressed in transfected cells; host or cells: HEK293T (HEK293T-hTREM2 cells)
- test protocol: TREM2 agonist potency by cellular phosphorylation of Spleen Tyrosine Kinase (Syk), AlphaLisa, HEK293T-hTREM2 cells
- Type: cell-based
- condition parameters: hTREM2 EC50 Data (HEK293 Cells); Syk phosphorylation, AlphaLisa; read-out: hTREM2 EC50
- Procedure: Measurement of TREM2 agonist potency was done using a HEK cell line expressing human TREM2 and DAP12 (HEK293T-hTREM2 cells). Binding of small molecules to, and activation of, TREM2 increases the phosphorylation of Syk. The resultant levels of Syk phosphorylation are measured using a commercial AlphaLisa reagent kit. To perform the assay, HEK-hTREM2 cells were plated at 14,000 cells per well in a 384 well plate, in 25 μL of complete growth media and incubated at 37° C., 5% CO2 for 20-24 hours. […]
pEC50: −log10 of the molar value.
Entries and their measured pEC50 follow.

{"columns": ["molecule", "pEC50"],
 "data": [
  ["COc1nc2c(C34CC(C(F)(F)F)(C3)C4)nc([C@H]3CCO[C@@H](c4ccc(=O)n(-c5csc(C)n5)c4)C3)nc2nc1C", "> 7.00"],
  ["Cc1nc2nc(C3CCO[C@@H](c4ccc(=O)n(N(C)C)c4)C3)nc(C34CC(C(F)(F)F)(C3)C4)c2nc1C(F)F (stereo in doubt)", "> 7.00"],
  ["Cc1nc2nc(C3CCO[C@@H](c4ccc(=O)n(-c5cscn5)c4)C3)nc(C34CC(C(F)(F)F)(C3)C4)c2nc1C (mixture of isomers)", "> 7.00"],
  ["CCNn1cc([C@H]2C[C@@H](c3nc(C45CC(C(F)(F)F)(C4)C5)c4nc(C)c(C)nc4n3)CCO2)ccc1=O", "> 7.00"],
  ["Cc1nc2nc(N3C[C@@H](C)O[C@@H](c4ccc(=O)n(C)c4)C3)nc(C34CC(C(N)=O)(C3)C4)c2nc1C", "< 6.30"],
  ["Cc1nc2nc([C@H]3CCO[C@@H](c4ccc(=O)n(NCC(F)F)c4)C3)nc(C34CC(C(F)(F)F)(C3)C4)c2nc1C", "> 7.00"]
]}

* * *

- tgt: human TREM2 (Homo sapiens, UniProt Q9NZC2)
- Construct: expressed in transfected cells; host or cells: HEK293T (HEK293T-hTREM2 cells)
- test protocol: TREM2 agonist potency by cellular phosphorylation of Spleen Tyrosine Kinase (Syk), AlphaLisa, HEK293T-hTREM2 cells
- Format: cell-based
- condition parameters: hTREM2 EC50 Data (HEK293 Cells); Syk phosphorylation, AlphaLisa; read-out: hTREM2 EC50
Quick reference for EC50 among some compounds

{"columns": ["compound", "EC50"],
 "data": [
  ["CC(C)=Nn1cc([C@H]2C[C@@H](c3nc(C45CC(C(F)(F)F)(C4)C5)c4cc(C(F)(F)F)c(C)nc4n3)CCO2)ccc1=O [Example 208]", "< 0.1 µM"],
  ["COCCn1cc([C@H]2C[C@@H](c3nc(C45CC(C(F)(F)F)(C4)C5)c4nc(C)c(C)nc4n3)CCO2)ccc1=O [Example 82]", "< 0.1 µM"],
  ["Cc1nc2nc(N3CCC(F)(F)C(c4ccc(=O)[nH]c4)C3)nc(-c3ccc(F)cc3F)c2nc1C (stereo not shown) [Example 189]", "< 0.1 µM"],
  ["[2H]C([2H])([2H])n1cc([C@H]2C[C@@H](c3nc(C4CC45CC5(F)F)c4nc(C)c(C)nc4n3)CCO2)ccc1=O (stereo partly shown) [Example 92]", "> 0.5 µM"]
]}

* * *

- tgt: human TREM2 (Homo sapiens)
- Construct: expressed in transfected cells; host or cells: HEK293T (HEK293T-hTREM2 cells)
- test protocol: TREM2 agonist potency by cellular phosphorylation of Spleen Tyrosine Kinase (Syk), AlphaLisa, HEK293T-hTREM2 cells
- Assay type: cell-based
- condition parameters: hTREM2 EC50 Data (HEK293 Cells); Syk phosphorylation, AlphaLisa; read-out: hTREM2 EC50

{"columns": ["smiles input", "EC50"],
 "data": [
  ["Cc1nc2nc(N3C[C@@H](C)O[C@@H](c4ccc(=O)n(C5CC5)c4)C3)nc(C34CC(C(F)(F)F)(C3)C4)c2nc1C1COC1", "< 100 nM"],
  ["Cc1nc2nc([C@H]3CCO[C@@H](c4ccc(=O)n(C)c4)C3)cc(C34CC(C(F)(F)F)(C3)C4)c2nc1C", "< 100 nM"],
  ["Cc1nc2nc(N3C[C@@H](C)O[C@@H](c4ccc(=O)n(C)c4)C3)nc(-c3cnc(C(F)(F)F)s3)c2nc1C", "< 100 nM"],
  ["Cc1nc2nc(N3C[C@@H](C)O[C@@H](c4ccc(=O)n(N)c4)C3)nc(C34CC(C(F)(F)F)(C3)C4)c2nc1C", "< 100 nM"],
  ["Cc1cc(-n2cc([C@H]3C[C@@H](c4nc(C56CC(C(F)(F)F)(C5)C6)c5nc(C)c(C)nc5n4)CCO3)ccc2=O)cs1", "< 100 nM"],
  ["C[C@@H]1CN(c2nc(-c3ccc(F)cc3F)c3sc(N(C)C)nc3n2)C[C@H](c2ccc(=O)[nH]c2)O1", "< 100 nM"],
  ["Cc1nc2nc([C@H]3CCO[C@@H](c4ccc(=O)n(C(C)C)c4)C3)nc(-c3ccc(C(F)(F)F)cc3F)c2nc1C", "< 100 nM"],
  ["Cc1cc2c(-c3ccc(F)cc3F)nc(N3C[C@@H](C)O[C@@H](c4ccc(=O)n(N)c4)C3)cc2nc1C", "< 100 nM"],
  ["Cc1nc2nc([C@@H]3CCO[C@H](c4ccc(=O)n(C)c4)C3)nc(-c3ccc(C(F)(F)F)c(F)c3F)c2nc1C", "< 100 nM"],
  ["Cc1nc2nc([C@@H]3CCO[C@H](c4ccc(=O)n(C)c4)C3)nc(-c3cc(F)c(C(F)(F)F)cc3F)c2nc1C", "> 500 nM"],
  ["Cc1nc2c(C34CC(C(F)(F)F)(C3)C4)nc(N3C[C@@H](C)O[C@@H](c4ccc(=O)n(C5CC5)c4)C3)nc2c(=O)n1C", "< 100 nM"],
  ["Cc1nc2nc([C@H]3C[C@@H](C)O[C@@H](c4ccc(=O)n(C)c4)C3)nc(C34CC(C(F)(F)F)(C3)C4)c2nc1C", "< 100 nM"],
  ["Cc1noc(-c2cc3c(C45CC(C(F)(F)F)(C4)C5)nc([C@H]4CCO[C@@H](c5ccc(=O)n(C(F)F)c5)C4)nc3nc2C)n1", "> 500 nM"]
]}

* * *

The following compounds are listed with their measured pEC50 values.
- tgt: human TREM2 (Homo sapiens, UniProt Q9NZC2)
- Construct: expressed in transfected cells; host or cells: HEK293T (HEK293T-hTREM2 cells)
- test protocol: TREM2 agonist potency by cellular phosphorylation of Spleen Tyrosine Kinase (Syk), AlphaLisa, HEK293T-hTREM2 cells
- Assay type: cell-based
- condition parameters: hTREM2 EC50 Data (HEK293 Cells); Syk phosphorylation, AlphaLisa; read-out: hTREM2 EC50
pEC50: −log10 of the molar value.

{"columns": ["smiles input", "pEC50"],
 "data": [
  ["Cc1nc2nc([C@@H]3CCO[C@@H](c4ccc(=O)n(C)c4)C3)cc(C34CC(C(F)(F)F)(C3)C4)c2nc1C", "> 7.00"],
  ["Cc1nc2nc([C@H]3CCO[C@@H](c4ccc(=O)n(C)c4)C3)nc(-c3ccc(C(F)(F)F)c(F)c3F)c2nc1C", "6.30 to 7.00"],
  ["Cc1nc2nc([C@H]3CCO[C@@H](c4ccc(=O)n(C)c4)C3)nc(-c3ccc(C(F)(F)F)cc3F)c2nc1C", "> 7.00"],
  ["Cc1nc2nc([C@H]3CCO[C@@H](c4ccc(=O)n(C5COC5)c4)C3)nc(C34CC(C(F)(F)F)(C3)C4)c2nc1C", "> 7.00"],
  ["[2H]C([2H])([2H])n1cc([C@H]2C[C@@H](c3nc(C45CC(C(F)(F)F)(C4)C5)c4cc(C(F)(F)F)c(C)nc4n3)CCO2)ccc1=O", "> 7.00"],
  ["Cc1nc2nc([C@@H]3CCO[C@H](c4cnc(=O)n(C)c4)C3)nc(C34CC(C(F)(F)F)(C3)C4)c2nc1C", "> 7.00"]
]}
